target: T1, human chemokine (C-C motif) receptor 8 (CCR8) protein (human, UniProt P51685 1-355); assay: cell binding, CCR8-expressing CHO-K1 cells, curve fit
T1 construct: whole, on cells; also called human CCR8
This listing pairs binders with measured Bottom.
Give only the figure.

Field: example entries. Status: answers known.
binder="137-xi (antibody, V domains shown, also called 137D1H10; chimeric 137D1H10) VH: EVQLVESGGGLVQPKGSLKLSCTASGFTFNTYAMNWVRQAPGKGLEWVARIRSKANNYATYYADSVKDRFTISRDDSQRILYLQMNNLKAEDTAMYYCVRDRSRGEDYAMDYWGQGTSVTVSS VL: DIVMTQAAPSVPVTPGESVSISCRSSKSLLHSNGNTYLYWFLQRPGQSPQLLIYRMSNLASGVPDRFSGSGSGTAFTLRISRVEAEDVGVYYCMQHLEYPFTFGAGTKLELK" assay_value=3030
binder="137-H2L3 (antibody, V domains shown, Humanized 137D1H10) VH: EVQLVESGGGLVQPGGSLKLSCAASGFTFNTYAMNWVRQASGKGLEWVGRIRSKANNYATYYADSVKDRFTISRDDSKNTAYLQMNNLKTEDTAVYYCVRDRSRGEDYAMDYWGQGTLVTVSS VL: DIVMTQSPLSLPVTPGEPVSISCRSSKSLLHSNANTYLYWFLQKPGQSPQLLIYRMSNLASGVPDRFSGSGSGTAFTLKISRVEAEDVGVYYCMQHLEYPFTFGQGTKLEIK" assay_value=2240

Request: Query Bottom for 137-H3L3 (antibody, V domains shown, Humanized 137D1H10) VH: EVQLVESGGGLVQPGGSLKLSCAASGFTFNTYAMNWVRQASGKGLEWVARIRSKANNYATYYADSVKDRFTISRDDSKNTLYLQMNNLKTEDTAVYYCVRDRSRGEDYAMDYWGQGTLVTVSS VL: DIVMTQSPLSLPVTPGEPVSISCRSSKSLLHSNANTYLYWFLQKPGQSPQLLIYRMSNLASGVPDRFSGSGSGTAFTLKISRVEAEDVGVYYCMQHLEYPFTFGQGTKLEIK
Response: 3820
